# Tested on: HUVEC cells
# Assay explanation: CCK-8 cell viability: alleviation of proliferative toxicity of anti-tumor agents on HUVEC cells (Tables 7-1, 7-2)
# Type: cell-based
# Test settings: Homo sapiens, 24 h, Olmutinib (10 μM), NO-NSAID 100 μM, percentage increase in viable cells vs anti-tumor agent alone, read-out: Response rate % (average)
Endpoint label: activation at 100 µM

Compound	activation at 100 µM
COc1ccc2cc(C(C)C(=O)OCCCCO[N+](=O)[O-])ccc2c1 (centres unmarked) [Compound A5]	48%
COc1ccc2cc(C(C)C(=O)OCC(CO[N+](=O)O)C[N+](=O)[O-])ccc2c1 (centres unmarked) [Compound A9]	42%
CC(=O)Oc1ccccc1C(=O)OCc1no[n+]([O-])c1C(N)=O [Compound A6]	28%
CC(C(=O)OCC(CO[N+](=O)[O-])O[N+](=O)[O-])c1ccc(-c2ccccc2)c(F)c1 (centres unmarked) [Compound A10]	48%
CC(C(=O)OCCCO[N+](=O)[O-])c1ccc(-c2ccccc2)c(F)c1 (centres unmarked) [Compound A1]	37%
CC(=O)Oc1ccccc1C(=O)Oc1cccc(CO[N+](=O)[O-])c1 [Compound A2]	33%
CC(=O)Oc1ccccc1C(=O)OCOC(=O)CCCCCO[N+](=O)[O-] [Compound A3]	57%

Query: activation at 100 µM; subject: CC(C)Cc1ccc(C(C)C(=O)OCO/N=[N+](\[O-])N(C)C)cc1 (centres unmarked) [Compound A4]
28%

----------
Reported activation at 100 µM values for the following molecules.
# Tested on: HUVEC cells
# Assay explanation: CCK-8 cell viability: alleviation of proliferative toxicity of anti-tumor agents on HUVEC cells (Tables 7-1, 7-2)
# Assay type: cell-based
# Test settings: Homo sapiens, 24 h, Anlotinib (5 μM), NO-NSAID 100 μM, percentage increase in viable cells vs anti-tumor agent alone, read-out: Response rate % (average)
Give the value in % but do not write % after it.

// worked examples, activation at 100 µM included
Molecule	Units text	activation at 100 µM
COc1ccc2cc(C(C)C(=O)OCC(CO[N+](=O)O)C[N+](=O)[O-])ccc2c1 (stereo not shown)	%	58
CC(C(=O)OCC(CO[N+](=O)[O-])O[N+](=O)[O-])c1ccc(-c2ccccc2)c(F)c1 (stereo not shown)	%	27

For the molecule "CC(=O)Oc1ccccc1C(=O)Oc1cccc(CO[N+](=O)[O-])c1" , what activation at 100 µM is on record?
78

Which activation at 100 µM is reported for this molecule? "CC(=O)Oc1ccccc1C(=O)OCc1no[n+]([O-])c1C(N)=O"
50

----------
# Test system: HUVEC cells
# Assay explanation: CCK-8 cell viability: alleviation of proliferative toxicity of anti-tumor agents on HUVEC cells (Tables 7-1, 7-2)
# Type: cell-based
# Test settings: Afatinib (10 μM), NO-NSAID 0.1 μM
Each entry below lists one item and its recorded NO-NSAID response rate % (average) value.
Respond numerically; units are % and should not be typed.

Compound	Target under test	Assay value
CC(C)Cc1ccc(C(C)C(=O)OCO/N=[N+](\[O-])N(C)C)cc1 (centres unmarked)	HUVEC cells	18
CC(C(=O)OCCCO[N+](=O)[O-])c1ccc(-c2ccccc2)c(F)c1 (centres unmarked)	HUVEC cells	13
COc1ccc2cc(C(C)C(=O)OCCCCO[N+](=O)[O-])ccc2c1 (centres unmarked)	HUVEC cells	24
CC(=O)Oc1ccccc1C(=O)OCOC(=O)CCCCCO[N+](=O)[O-]	HUVEC cells	15

Next, consider the following compound.
I would be grateful if you could share the reported NO-NSAID response rate % (average) for "CC(=O)Oc1ccccc1C(=O)Oc1cccc(CO[N+](=O)[O-])c1" .
15

----------
# Test system: human immortalized keratinocytes (HaCaT)
# Assay explanation: CCK-8 cell viability: alleviation of proliferative toxicity of anti-tumor agents on HaCaT (Table 8-1)
# Type: cell-based
# Test settings: Sunitinib (5 μM), NO-NSAID 100 μM, percentage increase in viable cells vs anti-tumor agent alone
compounds and their reported Response rate % (average)
A number alone suffices; assume %.

Compound	Response rate % (average) [%]
COc1ccc2cc(C(C)C(=O)OCCCCO[N+](=O)[O-])ccc2c1 (centres unmarked)	33
CC(C(=O)OCCCO[N+](=O)[O-])c1ccc(-c2ccccc2)c(F)c1 (centres unmarked)	15

Could you share which Response rate % (average) value was measured for CC(C)Cc1ccc(C(C)C(=O)OCO/N=[N+](\[O-])N(C)C)cc1 (centres unmarked) ?
16

Record request: Response rate % (average) value, item "CC(=O)Oc1ccccc1C(=O)OCOC(=O)CCCCCO[N+](=O)[O-]"
19

Item "CC(=O)Oc1ccccc1C(=O)Oc1cccc(CO[N+](=O)[O-])c1" has what recorded Response rate % (average)?
31

----------
# System: HUVEC cells
# Assay explanation: CCK-8 cell viability: alleviation of proliferative toxicity of anti-tumor agents on HUVEC cells (Tables 7-1, 7-2)
# Type: cell-based
# Test settings: Homo sapiens, 24 h, Lapatinib (5 μM), NO-NSAID 100 μM, percentage increase in viable cells vs anti-tumor agent alone, read-out: Response rate % (average)
Property: activation at 100 µM; scope: individual compounds
Dear colleague, please return just the value in %, with no unit written.

Solved cases (2 shown):
Compound	Assay value
COc1ccc2cc(C(C)C(=O)OCC(CO[N+](=O)O)C[N+](=O)[O-])ccc2c1 (stereo not drawn)	40
CC(=O)Oc1ccccc1C(=O)OCOC(=O)CCCCCO[N+](=O)[O-]	40

Next, consider the following compound.
So what's the measured activation at 100 µM for this one? "CC(=O)Oc1ccccc1C(=O)OCc1no[n+]([O-])c1C(N)=O"
41
